# System: Plasmodium berghei
# protocolText: Screen against P. berghei liver stage (PbLuc), transformed with Luciferase, at 10uM
# Assay type: functional, HepG2
# details: tested at 10 uM
Among all 69,000 compounds or so, about 8,600 (12%) showed an effect of 50% or more. What follows is part of a selection rich in strong results, with near analogues and random picks from the rest.
propertyName: INHIBITION (%)
Numbers only, in %.

Need INHIBITION of COCCCNC(=O)Nc1ccc(-n2cncn2)c(C(F)(F)F)c1 , thanks.
-37.55

Need INHIBITION of c1cc(CN2CCC3(CC2)CC(N2CCCC2)CO3)co1 (stereo not drawn) , thanks.
-4.82

Continuing:
Need INHIBITION of CC(=O)N1CCc2[nH]nc(C(=O)N3CC=CC3)c2C1 , thanks.
23.1

---

# System: Plasmodium berghei
# protocolText: Screen against P. berghei liver stage (PbLuc), transformed with Luciferase, at 10uM
# Format: functional, HepG2
# details: tested at 10 uM
About 8,600 (12%) of roughly 69,000 compounds showed an effect of 50% or more. The sample as a whole holds a higher share of strong results than the screen did.
propertyName: INHIBITION
Field note: include the unit after the figure.

In the examples that follow, each entry is paired with its recorded INHIBITION.
Need INHIBITION of O=C(NC1=NCCCN1c1ccc(Cl)cc1)c1cccc(Cl)c1 , thanks.
15.1%

Need INHIBITION of CCn1c(C)cc(C(=O)N2CCC(Nc3ccc(C)nn3)CC2)c1C , thanks.
32.9%

Need INHIBITION of Cn1cc(CN2C[C@@H](N3CCCC3=O)[C@H]3OCCC[C@H]32)cn1 , thanks.
29%

Need INHIBITION of Cc1nn(C)c(C)c1S(=O)(=O)NCCn1ccc(-c2cccs2)n1 , thanks.
63.1%

Need INHIBITION of CCn1c(C)cc(C(=O)N2CCC(NC(=O)c3ccc(C)o3)CC2)c1C , thanks.
74%

Need INHIBITION of Cc1ccc(NC2CCN(C(=O)c3ccc(F)cc3Cl)CC2)nn1 , thanks.
56.4%

Need INHIBITION of CCn1c(C)cc(C(=O)N2CCC(NC(=O)c3cc(C)no3)CC2)c1C , thanks.
-7.36%

Need INHIBITION of CC(=O)c1nn(-c2cccc(Cl)c2)c(C)c1C(C)=O , thanks.
12.3%

Batch of 3 molecules: report INHIBITION for each.
1. Cc1cnn(C2CCCN(C(=O)c3ccc(Cn4ccnc4)cc3)C2)c1 (configuration not stated)
2. CS(=O)(=O)NCCn1ccc(-c2cccs2)n1
3. CCCS(=O)(=O)NCCn1ccc(-c2cccs2)n1

1: 16.9%; 2: 22.5%; 3: 34.6%

Batch of 3 molecules: report INHIBITION for each.
1. Cc1ccc(NC2CCN(C(=O)c3ccc(Cl)o3)CC2)nn1
2. CNC(=O)c1cnn2c(C3CCCN3C)ccnc12 (configuration not stated)
3. CC(=O)N1CCCCC[C@@H]2[C@@H]1[C@H](c1cccc(F)c1)CN2CCC(N)=O

1. -33.5%
2. -6.73%
3. 32.95%

---

# Tested on: Plasmodium berghei
# protocolText: Screen against P. berghei liver stage (PbLuc), transformed with Luciferase, at 10uM
# Assay type: functional, HepG2
# details: tested at 10 uM
Screen size: about 69,000 compounds; about 8,600 (12%) showed an effect of 50% or more. Many of the other results were omitted from the sample, so strong results are more common in it than they were.
propertyName: INHIBITION

In the examples that follow, each entry is paired with its recorded INHIBITION.
// map CN1CCC2(CCN(CC3CCOCC3)CC2)C1=O to recorded INHIBITION (system: Plasmodium berghei)
26.5%

// map Cn1cc(CN2CCC3(CCCCN3S(C)(=O)=O)CC2)cn1 to recorded INHIBITION (system: Plasmodium berghei)
27.6%

// map O=C(O)c1ccnc(SCC(=O)c2ccccc2)c1 to recorded INHIBITION (system: Plasmodium berghei)
9.55%

Batch of 6 molecules: report INHIBITION for each.
1. COc1ccc(CN2CC(O)CN(C(=O)C3CCC3)CC2=O)cc1 (stereo not drawn)
2. CCC(CCNC(=O)c1cc(C2CC2)nc2c1cnn2C)n1cccn1 (stereo not drawn)
3. O=C(O)c1ccnc(SCC(F)(F)F)c1
4. Cc1nc(CN2CCCC(NCCOc3ccccc3C#N)C2)no1 (stereo not drawn)
5. CCc1ncc(CN2CCCC3(CCC(=O)N(CCC(C)C)C3)C2)cn1 (stereo not drawn)
6. CS(=O)(=O)N1CCCC1c1ccnc2nccn12 (stereo not drawn)

1: 41.1%; 2: 9.55%; 3: 57%; 4: 44.1%; 5: 0.818%; 6: 10.3545%

Batch of 5 molecules: report INHIBITION for each.
1. Cn1nc(-c2ccc(F)cc2)cc1C(=O)NCCn1ccnc1
2. Cc1ccc(CN2CCC3(CC2)CC(CC(=O)NC(C)C)CO3)s1 (stereo not drawn)
3. Cn1cc(CN2CCC3(CCC(C(=O)NCC4CC4)C3)CC2)cn1 (stereo not drawn)
4. COCC1CN(Cc2cccc(C#N)c2)Cc2nccn2C1 (stereo not drawn)
5. C1CCC(CNC2CCCN(Cc3noc(C4CC4)n3)C2)CC1 (stereo not drawn)

1. -0.232%
2. -62.7%
3. 20.1%
4. 25.1%
5. 31.6%

---

# System: Plasmodium berghei
# protocolText: Screen against P. berghei liver stage (PbLuc), transformed with Luciferase, at 10uM
# Assay type: functional, HepG2
# details: tested at 10 uM
Out of some 69,000 compounds screened, about 8,600 (12%) showed an effect of 50% or more. Shown is part of a subset that was picked to be rich in strong results.
propertyName: INHIBITION (%)
Numbers only, in %.

In the examples that follow, each entry is paired with its recorded INHIBITION.
Need INHIBITION of CC(c1ccccc1)N(C)C(=O)CN1CCCc2cc(F)cc(F)c21 (configuration not stated) , thanks.
76.1

Need INHIBITION of CC(c1ccccc1)N(C)C(=O)CN1CCCc2cccc(F)c21 (configuration not stated) , thanks.
51.1

Need INHIBITION of CN(C)C(=O)Cn1cc(C(=O)N2CCCc3cccc(F)c32)nn1 , thanks.
28.6

Need INHIBITION of Cc1nn(C)c(C)c1C1COCCN1C(=O)CCc1ccccc1 (configuration not stated) , thanks.
5.7

Batch of 3 compounds: report INHIBITION for each.
1. Cc1cccc(CN2CC[C@@H]3[C@@H]2CCN3C(=O)c2cc(C)oc2C)n1
2. Cc1nc(CC(=O)N2CCCC2Cn2cccn2)cs1 (configuration not stated)
3. CC(c1ccccc1)N(C)C(=O)CN1CCN(c2cnccn2)CC1 (configuration not stated)

[-6.23, 19.4, 47.2]

---

# Test system: Plasmodium berghei
# protocolText: Screen against P. berghei liver stage (PbLuc), transformed with Luciferase, at 10uM
# Type: functional, HepG2
# details: tested at 10 uM
The whole screen tested about 69,000 compounds, of which about 8,600 (12%) showed an effect of 50% or more. Shown is part of a subset that was picked to be rich in strong results.
// classify: if (INHIBITION < 30%) fulfilled else not fulfilled

A selection of reference data follows.
Identify whether the compound O=C(C1CCCC1)N1CCC(C2CCN(Cc3ccc(Cl)cc3)C2)CC1 (configuration not stated) records INHIBITION below 30%.
not fulfilled

Identify whether the compound Cc1ccc(-c2nc(CC(=O)N3CCCC(NC(=O)C(C)C)C3)cs2)o1 (configuration not stated) records INHIBITION below 30%.
not fulfilled

Identify whether the compound CC(C)c1nc(CN(C)C(=O)CNS(=O)(=O)c2cccs2)cs1 records INHIBITION below 30%.
fulfilled

Identify whether the compound COCCOCC(=O)N1C[C@@H]2CC[C@H](Oc3ccccc3)[C@@H]2C1 records INHIBITION below 30%.
fulfilled

Identify whether the compound Fc1ccccc1CN1CCC[C@H](Cn2nnc(-c3cccs3)n2)C1 records INHIBITION below 30%.
fulfilled

Continuing:
Identify whether the compound Cc1ccsc1C(=O)N1CC2CC1(C(=O)NCC1CC1)C2 records INHIBITION below 30%.
fulfilled

Identify whether the compound O=C(Nc1cnccn1)[C@H]1C[C@H]2OCC[C@H]2N(c2ncc(F)cn2)C1 records INHIBITION below 30%.
not fulfilled

Identify whether the compound O=C(Nc1cnccn1)[C@H]1CO[C@H]2CCN(c3ncc(F)cn3)C[C@H]2C1 records INHIBITION below 30%.
fulfilled

Identify whether the compound CN(C)CCn1c2c(ccc1=O)CCN(Cc1ccncc1)CC2 records INHIBITION below 30%.
fulfilled

---

Answer each item with its documented INHIBITION.
# System: Plasmodium berghei
# protocolText: Screen against P. berghei liver stage (PbLuc), transformed with Luciferase, at 10uM
# Type: functional, HepG2
# details: tested at 10 uM
About 8,600 (12%) of roughly 69,000 compounds showed an effect of 50% or more. Shown is part of a subset that was picked to be rich in strong results.
Answers are plain numbers, in %.

Need INHIBITION of O=C(NCCO)c1sc2ncccc2c1C1CNCCO1 (stereo not given) , thanks.
9.98

Need INHIBITION of CN(C)c1nc(N)nc(CN2CCCC2c2cccs2)n1 (stereo not given) , thanks.
70

Need INHIBITION of CN(C)c1nc(N)nc(CN2CCCC2c2ccsc2)n1 (stereo not given) , thanks.
25.5

Need INHIBITION of Cc1cccc(C2CCCN2Cc2nc(N)nc(N(C)C)n2)c1C (stereo not given) , thanks.
35.2

Batch of 2 compounds: report INHIBITION for each.
1. O=C(NCc1ccccc1F)N1CCCCC1C1OCCO1 (stereo not given)
2. CC(C)CC(=O)N1CCC2(CC1)OC(C(N)=O)Cn1ccnc12 (stereo not given)

[-6.88, 7.7]

Batch of 4 compounds: report INHIBITION for each.
1. Cn1ccc(CN2CCC(c3ccccc3)CC2)cc1=O
2. CN1CCC(C)(CN(C)C(=O)c2ccc(CCC(C)(C)O)cc2)C1 (stereo not given)
3. CN(C)c1nc(N)nc(CN2CCCC(c3ccccc3)CC2)n1 (stereo not given)
4. CC(O)CN(C(=O)NC1CCN(CC2CCCCC2)CC1)C(C)C (stereo not given)

38
1.71
57.8
21.2

Batch of 5 compounds: report INHIBITION for each.
1. CS(=O)(=O)N1CCC(C(=O)NC(Cc2ccsc2)c2nccs2)CC1 (stereo not given)
2. Cc1c(F)cc(C(=O)O)cc1S(=O)(=O)Nc1ccc(C#N)cc1
3. CNC(=O)[C@H]1C[C@H]2CN(C(=O)Nc3ccc(F)cc3)C[C@@H]1O2
4. CC(C)c1noc(CCNC(=O)N2CCC(O)(C(F)(F)F)C2)n1 (stereo not given)
5. CCS(=O)(=O)N1CCC(C(=O)NC(Cc2ccsc2)c2nccs2)CC1 (stereo not given)

1. 38.1
2. 14.55
3. 13.4
4. 36.5
5. 59
